Listed binders paired with reported binding signal
- assayTarget: T1, UNK ZnF1-3 (human, UniProt Q9C0B0 31-174)
- T1 sequence: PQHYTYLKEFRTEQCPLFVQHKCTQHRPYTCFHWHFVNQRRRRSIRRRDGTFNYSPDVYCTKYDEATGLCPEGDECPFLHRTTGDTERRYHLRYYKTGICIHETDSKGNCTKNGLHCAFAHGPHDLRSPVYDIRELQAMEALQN
- testDescription: nsRBNS (natural sequence RNA bind-n-seq); RBNS binding buffer (assumed for nsRBNS): 25 mM Tris pH 7.5, 150 mM KCl, 3 mM MgCl2, 0.01% Triton X-100, 500 ug/ml BSA, 20 U/ml SUPERase-In, 4 C; UNK is unkempt and MSI1 is Musashi-1; names of the RNAs are library labels; protein concentration not given here; high values mean tight binding
Whole data set: some 24,000 sequences, median “enrichment r” near 0.99, cut for the highest 2% near 3.7. Only a selection was taken, and the highest values are over-represented in it overall.
parameter: binding signal

binder="chr16:57473197:57473198:-_ENSG00000005194_ENST00000569370|hu_hu|motif|central (ssRNA) RNA: GGGAGUUCUACAGUCCGACGAUCGAUCCGGGCGAUUUCAGCCAAAAUCUCAGCACUGUGCAGAGUGGUGCUUCCUGGGACGGAACCUGACAAAAUAAUGUCAAAGCUGGAUUCUUUGUGGGCAGAUUGCAACAGCUGCUUGAUCAACAGAGGAUUGAGCAUCA" observedresult="1.32 enrichment R"
binder="chr15:75216061:75216062:-_ENSG00000178741_ENST00000564811|perfect_dup|motif|central (ssRNA) RNA: GGGAGUUCUACAGUCCGACGAUCUUUGUCAAGGCCCAGUUCCUCCGGAGUGGAGAUUCCCAGUUCAUUUAAAGUUGGUCGGAGUUCCUGGAUGACAUAGGGGUAGAUUUCCUUAUGAGGUCCUGCUUUGUCCUUAACAACCUCCAACAGAGGAUUGAGCAUCA" observedresult="0.656 enrichment R"
binder="10529348_10532452_191_CDS_ENSG00000160049_ENST00000377038|human|control|control (ssRNA) RNA: GGGAGUUCUACAGUCCGACGAUCCAGGGUGACUGGUGUCAGGGACUUAUCAAUGGCCAGAAUGUCACAGGCCUUGCUCCUCAGGUCUUCGAGGCAGGAGGCGGCCACGCCGUGCUGUUCGCGGCUGUAGUUGCGGCGCAGCAGCAACAGAGGAUUGAGCAUCA" observedresult="0.999 enrichment R"
binder="chr16:8858281:8858282:+_ENSMUSG00000022507_ENSMUST00000023150|mus_mus|FALSE|FALSE (ssRNA) RNA: GGGAGUUCUACAGUCCGACGAUCCUCAUGAGGUGAGGAGGUGCUACAUAUUGAAUGCAAUGGAAAAAAGUAACCAGUGCUAAAGUUUUUAAAAAGUUUAAUGGAGCCAAUAAUUCGGCAUAUAAAUUGUGUUCUGGCAGACAUCAACAGAGGAUUGAGCAUCA" observedresult="5.62 enrichment R"
binder="chr16:45382771:45382772:-_ENSMUSG00000022661_ENSMUST00000163230|mus_mus|mus_mus_mus_hu_True|28_108 (ssRNA) RNA: GGGAGUUCUACAGUCCGACGAUCCUGAGUGUUAUUGUAAGACAAAUGGACAGGGAGGGCAUGCUUCUCAAAAAAUGUGAGCUAUUGUCUAAGACUAACAAUAUUUACUAAGUGCUAAAAAUAAGUUAAAUGAAUAAGUUAAGACAACAGAGGAUUGAGCAUCA" observedresult="10.2 enrichment R"
binder="chr16:45382771:45382772:-_ENSMUSG00000022661_ENSMUST00000163230|mus_mus|mus_mus_mus_hu_True|28_48 (ssRNA) RNA: GGGAGUUCUACAGUCCGACGAUCCUGGGUCAUGUUAUAAGACAAAUGGACAGGGAGGGCAUGCUUCUCAAAAAAUGUGAGCUAUUGACUAAGACUAACAAUAUUUACUAAGUGCUAAAAAUAAGUUAAAUGAAUAAGUUAAGACAACAGAGGAUUGAGCAUCA" observedresult="7.16 enrichment R"
binder="27821128_27827609_1759_CDS_ENSMUSG00000022263_ENSMUST00000090247|mouse|control|control (ssRNA) RNA: GGGAGUUCUACAGUCCGACGAUCGCCCUGGUGAUGAUGAAUGGCGUCUUCCAGGUCCUGCAGCUCCGAGGGAAGGUCUACUUCACCACAGGCCUUACACCACGAGUCCACGUUGCUCAUGUACUUCUCAGCCUUCUGGUGAAACAACAGAGGAUUGAGCAUCA" observedresult="0.482 enrichment R"

Where do the numbers come from? From paper PMC12136788.
